test: Intrinsic clearance in human liver microsomes at 1 uM after 30 mins in presence of NADPH; format: ADME; settings: read-out: CLH
OBSERVED_PROPERTY: microsomal CLint at 1 µM (µL/min/mg)

| SMILES_STRUCTURE | microsomal CLint at 1 µM [µL/min/mg] |
| --- | --- |
| Cn1cc(-c2cc(C(O)(C(F)(F)F)C(F)(F)F)cnc2N2CCN(S(=O)(=O)c3ccc(N)nc3)CC2)cn1 | 19 |

A = Nc1ccc(S(=O)(=O)N2CCN(c3ncc(C(O)(C(F)(F)F)C(F)(F)F)cc3-c3ccccc3O)CC2)cn1
B = Nc1ccc(S(=O)(=O)N2CCN(c3ncc(C(O)(C(F)(F)F)C(F)(F)F)cc3-c3ccc4scnc4c3)CC2)cn1
## Input Decide: A or B , by lowest recorded microsomal CLint at 1 µM. State your choice using its label.
## Output A
(A: 22 µL/min/mg, B: 39 µL/min/mg)
